STUDY_TARGET: UniProt P13569
TEST_DETAILS: T84 assay (FLIPR membrane potential dye, forskolin/IBMX-stimulated CFTR channel activity)
CONDITION_DETAILS: average of at least 2 runs unless annotated n = 1
The reader will find reported IC50 values listed item by item below.
Your answer should be a plain number; it is taken to be in µM.

- COMPOUND: "CC(=O)Nc1ccc(S(=O)(=O)Nc2cccc(-c3ccc(OCCc4ccc(Cl)cc4)nn3)c2)cc1"
  RESULT_UNITS: "µM"
  RESULT_NUMBER: 27.7
- COMPOUND: "Cc1ccc(S(=O)(=O)Nc2cccc(-c3ccc(NCc4ccccc4)nn3)c2)cc1"
  RESULT_UNITS: "µM"
  RESULT_NUMBER: 2.24
- COMPOUND: "CCN(Cc1ccccc1)c1ccc(-c2cccc(NS(=O)(=O)N(C)C)c2)nn1"
  RESULT_UNITS: "µM"
  RESULT_NUMBER: 1.4
- COMPOUND: "O=S(=O)(Nc1cccc(-c2ccc(OCCc3ccc(Cl)cc3)nn2)c1)c1ccc(N2CCOCC2)nc1"
  RESULT_UNITS: "µM"
  RESULT_NUMBER: 5.55
- COMPOUND: "O=S(=O)(CC(F)(F)F)Nc1cccc(-c2ccc(OCCc3ccc(Cl)cc3)nn2)c1"
  RESULT_UNITS: "µM"
  RESULT_NUMBER: 14.8

The recorded IC50 for entry CCN(Cc1ccccc1)c1ccc(-c2cccc(N3CCCS3(=O)=O)c2)nn1 equals 3.77

The recorded IC50 for entry O=C(NS(=O)(=O)Cc1ccccc1)c1cccc(-c2ccc(OCCc3ccc(Cl)cc3)nn2)c1 equals 6.05

The recorded IC50 for entry N#Cc1ccc(S(=O)(=O)Nc2cccc(-c3ccc(OCCc4ccc(Cl)cc4)nn3)c2)cc1 equals 17.2

The recorded IC50 for entry CCN(Cc1ccccc1)c1ccc(-c2cccc(NS(=O)(=O)C(F)(F)F)c2)nn1 equals 7.92

###

STUDY_TARGET: CFTR (Homo sapiens, UniProt P13569)
Sequence (P13569 whole entry): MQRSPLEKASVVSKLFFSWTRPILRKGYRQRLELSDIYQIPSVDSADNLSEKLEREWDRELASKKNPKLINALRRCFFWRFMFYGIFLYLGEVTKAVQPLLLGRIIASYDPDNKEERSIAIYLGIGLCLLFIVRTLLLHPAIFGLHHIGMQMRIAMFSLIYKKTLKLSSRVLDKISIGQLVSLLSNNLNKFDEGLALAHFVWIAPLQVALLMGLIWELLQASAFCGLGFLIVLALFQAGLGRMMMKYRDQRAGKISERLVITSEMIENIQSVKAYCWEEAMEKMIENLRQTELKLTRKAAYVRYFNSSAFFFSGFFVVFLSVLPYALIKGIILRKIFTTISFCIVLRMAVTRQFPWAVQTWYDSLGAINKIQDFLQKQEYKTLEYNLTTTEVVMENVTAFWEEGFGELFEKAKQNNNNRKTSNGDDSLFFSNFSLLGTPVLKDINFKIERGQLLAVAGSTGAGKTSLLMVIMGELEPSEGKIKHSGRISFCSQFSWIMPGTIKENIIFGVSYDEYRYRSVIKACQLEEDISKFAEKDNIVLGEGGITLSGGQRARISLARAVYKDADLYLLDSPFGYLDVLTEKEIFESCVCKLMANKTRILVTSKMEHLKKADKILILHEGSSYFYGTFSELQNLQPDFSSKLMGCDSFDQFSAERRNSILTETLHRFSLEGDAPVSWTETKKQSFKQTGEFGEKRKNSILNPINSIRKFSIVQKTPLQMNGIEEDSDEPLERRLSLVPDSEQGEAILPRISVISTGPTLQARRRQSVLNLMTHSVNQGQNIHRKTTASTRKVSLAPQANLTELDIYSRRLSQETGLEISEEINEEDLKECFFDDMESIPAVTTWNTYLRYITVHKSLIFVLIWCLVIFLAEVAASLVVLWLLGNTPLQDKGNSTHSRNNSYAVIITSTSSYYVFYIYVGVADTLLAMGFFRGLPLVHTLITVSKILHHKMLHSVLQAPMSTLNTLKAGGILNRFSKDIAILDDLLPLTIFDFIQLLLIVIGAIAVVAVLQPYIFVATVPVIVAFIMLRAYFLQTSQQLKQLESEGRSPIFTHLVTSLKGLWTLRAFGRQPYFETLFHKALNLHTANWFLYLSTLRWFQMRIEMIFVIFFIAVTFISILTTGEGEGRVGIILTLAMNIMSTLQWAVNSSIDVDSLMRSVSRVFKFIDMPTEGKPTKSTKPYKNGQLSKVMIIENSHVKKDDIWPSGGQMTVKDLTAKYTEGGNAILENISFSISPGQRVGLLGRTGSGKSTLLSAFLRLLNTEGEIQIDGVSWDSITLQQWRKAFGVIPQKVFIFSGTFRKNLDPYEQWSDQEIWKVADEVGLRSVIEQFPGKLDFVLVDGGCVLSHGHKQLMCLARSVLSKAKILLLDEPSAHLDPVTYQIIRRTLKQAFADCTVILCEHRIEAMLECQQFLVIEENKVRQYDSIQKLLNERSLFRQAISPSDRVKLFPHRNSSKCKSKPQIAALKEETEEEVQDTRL
TEST_DETAILS: T84 assay (FLIPR membrane potential dye, forskolin/IBMX-stimulated CFTR channel activity)
CONDITION_DETAILS: average of at least 2 runs unless annotated n = 1
pIC50: −log10 of the molar value.
Parameter threshold = 5. Response is condition met when pIC50 meets or exceeds it, else condition not met.

These solved cases illustrate the format of a correct answer.
- COMPOUND: "CCN(Cc1ccccc1)c1ccc(-c2cccc(NS(=O)(=O)c3ccc(C)cc3)c2)nn1 [Compound 8]"
  GROUP_LABEL: "condition met"
- COMPOUND: "CC(C)(C)c1ccc(S(=O)(=O)NC(=O)c2cccc(-c3ccc(OCCc4ccc(Cl)cc4)nn3)c2)cc1 [Compound 14]"
  GROUP_LABEL: "condition not met"

Kindly review the next compound as well.
Query: Form field: pIC50 at least 5? Entry: CC(C)CS(=O)(=O)Nc1ccc(-c2ccc(OCCc3ccc(Cl)cc3)nn2)cc1 [Compound 24]
Reply: condition not met

###

The reader will find reported IC50 values listed item by item below.
STUDY_TARGET: CFTR (Homo sapiens)
Construct: host or cells: T84 human colonic cells
TEST_DETAILS: T84 assay (FLIPR membrane potential dye, forskolin/IBMX-stimulated CFTR channel activity)
Assay type: cell-based
CONDITION_DETAILS: average of at least 2 runs unless annotated n = 1
Your answer should be a plain number; it is taken to be in µM.

Worked cases, answers included:
- MOLECULE: "Cc1ccc(S(=O)(=O)NC(=O)c2ccc(-c3ccc(OCCc4ccc(Cl)cc4)nn3)cc2)cc1"
  STUDY_TARGET: "CFTR (Homo sapiens)"
  RESULT_UNITS: "µM"
  IC50: 3.03
- MOLECULE: "O=C(NS(=O)(=O)c1ccc(F)cc1F)c1cccc(-c2ccc(OCCc3ccc(Cl)cc3)nn2)c1"
  STUDY_TARGET: "CFTR (Homo sapiens)"
  RESULT_UNITS: "µM"
  IC50: 18.7
- MOLECULE: "O=C(NS(=O)(=O)c1ccc(F)c(F)c1)c1cccc(-c2ccc(OCCc3ccc(Cl)cc3)nn2)c1 [Compound 15]"
  STUDY_TARGET: "CFTR (Homo sapiens)"
  RESULT_UNITS: "µM"
  IC50: 27.7
- MOLECULE: "CCS(=O)(=O)NC(=O)c1cccc(-c2ccc(OCCc3ccc(Cl)cc3)nn2)c1"
  STUDY_TARGET: "CFTR (Homo sapiens)"
  RESULT_UNITS: "µM"
  IC50: 18.7
- MOLECULE: "O=S(=O)(Nc1ccc(-c2ccc(OCCc3ccc(Cl)cc3)nn2)cc1)C(F)(F)F"
  STUDY_TARGET: "CFTR (Homo sapiens)"
  RESULT_UNITS: "µM"
  IC50: 2.84
- MOLECULE: "CS(=O)(=O)Nc1cccc(-c2ccc(OCCc3ccc(Cl)cc3)nn2)c1"
  STUDY_TARGET: "CFTR (Homo sapiens)"
  RESULT_UNITS: "µM"
  IC50: 9.79

API: the following record is the query input.
The recorded IC50 for entry CCN(Cc1ccccc1)c1ccc(-c2cccc(NS(=O)(=O)c3cccc(Br)c3)c2)nn1 equals 0.05
